- target_or_system: Luciferin 4-monooxygenase (Photinus pyralis) (UniProt P08659)
- Sequence (P08659 whole entry, looked up): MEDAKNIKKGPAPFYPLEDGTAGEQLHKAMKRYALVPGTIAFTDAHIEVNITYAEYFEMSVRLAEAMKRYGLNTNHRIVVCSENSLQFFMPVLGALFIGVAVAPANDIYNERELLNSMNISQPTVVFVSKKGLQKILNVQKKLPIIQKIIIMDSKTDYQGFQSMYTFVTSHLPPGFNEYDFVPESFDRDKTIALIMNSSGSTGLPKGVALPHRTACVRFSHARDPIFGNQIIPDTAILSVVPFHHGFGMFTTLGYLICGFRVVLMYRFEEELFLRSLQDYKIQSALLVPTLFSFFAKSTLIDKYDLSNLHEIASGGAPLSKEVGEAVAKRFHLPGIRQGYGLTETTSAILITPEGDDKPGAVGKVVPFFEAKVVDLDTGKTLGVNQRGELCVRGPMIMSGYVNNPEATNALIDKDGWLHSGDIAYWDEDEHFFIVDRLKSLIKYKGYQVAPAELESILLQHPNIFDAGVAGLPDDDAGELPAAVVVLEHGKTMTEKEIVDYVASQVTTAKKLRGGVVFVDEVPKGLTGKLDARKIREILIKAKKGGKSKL
- procedure_details: Nrf2 qHTS screen for inhibitors: Purified Fluc Biochemical Counterscreen for Hit Validation; also: nearly all actives have a fitted effect of over 65% in size
- experimental_conditions: purified firefly luciferase, luminescence inhibition; series mostly up to 57.5 µM
Screen size: about 1,400 compounds; about 60 (4%) were called active. Inconclusive results (about 7%) are left out. Calls follow the shape of the dose curve; as a rule, active = well fitted inhibition curve with a large enough effect; inconclusive = small, poorly fitted or top-dose-only effect; inactive = flat fitted curve, though single readings scatter. Not all results are given here.
Outcomes: Yes (active), No (inactive)

compound=O=C1C=C(c2ccnc3cc(Cl)ccc23)C[C@@H](c2ccc3c(c2)OCO3)C1 qualitative_label=No
compound=CCCCNc1nc2c(c(=O)n(C)c(=O)n2C)n1Cc1cccc(OC)c1 qualitative_label=No
compound=CN(Cc1cccnc1)C(=O)c1cc(COc2ccc3ncccc3c2)on1 qualitative_label=No
compound=Cc1cc(C)cc(NS(=O)(=O)c2ccc(Oc3ncc(C(F)(F)F)cc3Cl)cc2)c1 qualitative_label=No
compound=CCCN(c1ccc(C(C)C)cc1)S(=O)(=O)c1c(C)[nH]c(=O)[nH]c1=O qualitative_label=No
compound=O/N=C(\C[n+]1ccccc1)c1ccc(Br)cc1 qualitative_label=No
compound="Cn1nccc1C(=O)NC1CCCc2c1cnn2-c1ccc(F)cc1F (stereo not drawn)" qualitative_label=No
compound=C[n+]1ccc(/C=C/c2c[nH]c3ccccc23)cc1 qualitative_label=No
compound="Cc1cccc(N2CCN(C(=O)CCS(=O)(=O)c3ccc4c(c3)NC(=O)C(C)S4)CC2)c1C (stereo not drawn)" qualitative_label=No
compound=O=C(CC(O)(C(F)(F)F)C(F)(F)F)Nc1ccc(Cl)c(Cl)c1 qualitative_label=No
compound="Cc1cc(C(=O)NC2CCCc3c2cnn3-c2cccc(C)c2C)c(C)o1 (stereo not drawn)" qualitative_label=No
compound=Cc1c(Cl)cccc1NC(=O)Cn1cc(C(=O)c2cccs2)c2ccccc21 qualitative_label=No
compound="CC(=O)N1c2ccc(S(=O)(=O)N3CCCC(C(=O)Nc4cccc(Cl)c4)C3)cc2CC1C (stereo not drawn)" qualitative_label=No
compound=COc1ccc(CCNc2cc(N3CCN(C(=O)c4ccccc4OC)CC3)ccc2[N+](=O)[O-])cc1OC qualitative_label=No
compound=COc1ccc(CC(=O)Nc2nc(-c3ccc(F)c(F)c3)cs2)cc1OC qualitative_label=No
compound=OCCCNc1nccc(-c2cc(Nc3cccc(Cl)c3)ncn2)n1 qualitative_label=No
compound="CCOc1ccc(S(=O)(=O)N2CCCCC2)cc1NC(=O)CN1CCCC1c1cccs1 (stereo not drawn)" qualitative_label=No
compound=CCCOc1ccc(C(=O)Nc2ccc3oc(-c4cccc(Cl)c4Cl)nc3c2)cc1 qualitative_label=No
compound="CC1CCCN(S(=O)(=O)c2ccc(C(=O)Nc3nnc(-c4ccncc4)o3)cc2)C1 (stereo not drawn)" qualitative_label=No
compound=O=C(CSc1nnc2c(n1)[nH]c1ccccc12)NC1CCCCC1 qualitative_label=No
compound=CN(C)c1ccc(/C=C/c2sc3ccccc3[n+]2CCCCBr)cc1 qualitative_label=No
compound=COCCn1c(SCC(=O)Nc2ccccc2F)nc2c(c1=O)SCC2 qualitative_label=No
compound=CC[C@H]1CN2CCc3cc(OC)c(OC)cc3[C@@H]2C[C@@H]1C[C@H]1NCCc2cc(OC)c(OC)cc21 qualitative_label=No
compound=Cc1nc(N2CCOCC2)c2c(C)c(C(=O)Nc3ccc(C(F)(F)F)cc3)sc2n1 qualitative_label=No
compound="CC1CCN(S(=O)(=O)c2ccc(NC(=O)C3CC(=O)N(c4ccccc4)C3)cc2)CC1 (stereo not drawn)" qualitative_label=No
compound=O=C(Nc1ccncc1)c1c(F)cccc1F qualitative_label=No
compound=CCNS(=O)(=O)c1ccc(CCC(=O)N2CCN(c3cc(Cl)ccc3C)CC2)cc1 qualitative_label=No
compound=CCCCCCCCn1c2c(c(=N)c3c1CCC3)CCCC2 qualitative_label=No
compound=COc1ccc(OC)c(Cc2cnc3nc(N)nc(N)c3c2C)c1 qualitative_label=No
compound=COc1ccc(CCNC(=O)c2ccc(CS(=O)(=O)c3ccc(Br)cc3)o2)cc1OC qualitative_label=No
compound=O=C(CN1C(=O)c2ccccc2S1(=O)=O)N1CCc2ccccc21 qualitative_label=Yes
compound=CC1(C)CC(N2CCN(C(c3ccccc3)c3ccccc3)CC2)=CC(=[N+]2CCCCC2)C1 qualitative_label=No
compound=COc1ccc(N2CCN(C(=O)CSCc3nc(-c4ccccc4Cl)oc3C)CC2)cc1 qualitative_label=No
